Target: ZNF721 DBD2 (Homo sapiens, UniProt Q8TF20-2 395-923)
Sequence (Q8TF20 383-911): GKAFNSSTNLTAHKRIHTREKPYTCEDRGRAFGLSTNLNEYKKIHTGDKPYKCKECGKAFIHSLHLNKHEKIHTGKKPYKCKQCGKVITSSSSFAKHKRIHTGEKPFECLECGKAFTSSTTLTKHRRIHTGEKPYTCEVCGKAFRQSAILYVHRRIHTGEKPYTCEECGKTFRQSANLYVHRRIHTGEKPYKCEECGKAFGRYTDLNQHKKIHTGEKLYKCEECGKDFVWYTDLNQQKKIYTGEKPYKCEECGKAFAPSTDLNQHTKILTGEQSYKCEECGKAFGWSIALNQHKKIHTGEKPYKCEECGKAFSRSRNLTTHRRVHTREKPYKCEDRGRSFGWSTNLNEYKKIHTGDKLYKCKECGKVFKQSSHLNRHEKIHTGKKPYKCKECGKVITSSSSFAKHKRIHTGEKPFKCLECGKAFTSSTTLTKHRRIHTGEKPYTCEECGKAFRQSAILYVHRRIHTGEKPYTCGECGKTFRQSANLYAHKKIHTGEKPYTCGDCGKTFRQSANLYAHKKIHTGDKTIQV
Assay: HT-SELEX; 20 mM HEPES pH 7, 140 mM KCl, 5 mM NaCl, 1 mM K2HPO4, 2 mM MgSO4, 100 uM EGTA, ZnSO4, 0.1% Tween20; room temperature, 1 h; high values mean tight binding
Settings: protein: ivt; tags: eGFP (N-terminal); dsDNA, one strand shown
Class assignment keyed on binding signal, ranges zone 1: < 0.003 relative 10-mer count; zone 2: ≥ 0.003 relative 10-mer count and < 0.008 relative 10-mer count; zone 3: ≥ 0.008 relative 10-mer count

Example cases with answers are listed next.
AGAAAAACAG zone 3
CGACCCACCC zone 2
AAGGCATACC zone 3
CACCAACCCC zone 2
GCAGCATACC zone 3
CGCCCCACCC zone 2
CAGCATGACC zone 3
AAAAAAGGTA zone 3

Let's switch to this sequence now.
In: Where would CACCCCCCAC land among the classes by reported binding signal?
Out: zone 2

----------
Biological target: ZNF721 full-length (Homo sapiens, UniProt Q8TF20-2 1-923)
Sequence (Q8TF20 other isoform, or with tags, fused parts or gaps): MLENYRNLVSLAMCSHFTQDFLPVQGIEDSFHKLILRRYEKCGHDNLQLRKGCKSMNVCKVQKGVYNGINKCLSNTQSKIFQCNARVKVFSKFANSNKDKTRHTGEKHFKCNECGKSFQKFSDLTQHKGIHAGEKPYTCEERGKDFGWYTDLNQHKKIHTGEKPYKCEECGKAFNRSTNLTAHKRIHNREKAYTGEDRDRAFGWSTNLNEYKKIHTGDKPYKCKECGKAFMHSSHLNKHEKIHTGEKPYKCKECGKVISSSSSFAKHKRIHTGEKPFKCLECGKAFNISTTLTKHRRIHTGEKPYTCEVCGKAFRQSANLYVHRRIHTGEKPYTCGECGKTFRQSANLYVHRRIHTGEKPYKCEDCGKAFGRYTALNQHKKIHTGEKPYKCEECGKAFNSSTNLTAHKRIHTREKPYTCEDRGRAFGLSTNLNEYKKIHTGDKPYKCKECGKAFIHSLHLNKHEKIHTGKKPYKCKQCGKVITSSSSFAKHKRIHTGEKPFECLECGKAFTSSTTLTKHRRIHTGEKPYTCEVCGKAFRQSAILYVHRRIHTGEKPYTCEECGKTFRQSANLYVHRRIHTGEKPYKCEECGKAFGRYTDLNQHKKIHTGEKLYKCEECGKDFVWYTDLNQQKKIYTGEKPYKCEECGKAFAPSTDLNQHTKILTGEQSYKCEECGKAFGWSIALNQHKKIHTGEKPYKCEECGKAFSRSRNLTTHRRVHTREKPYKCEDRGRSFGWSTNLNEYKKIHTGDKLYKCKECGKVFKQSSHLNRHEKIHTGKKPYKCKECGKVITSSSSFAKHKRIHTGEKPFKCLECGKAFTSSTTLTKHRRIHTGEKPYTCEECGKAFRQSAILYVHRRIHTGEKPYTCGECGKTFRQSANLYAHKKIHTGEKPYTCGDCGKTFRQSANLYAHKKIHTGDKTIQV
Assay: HT-SELEX; 20 mM HEPES pH 7, 140 mM KCl, 5 mM NaCl, 1 mM K2HPO4, 2 mM MgSO4, 100 uM EGTA, ZnSO4, 0.1% Tween20; room temperature, 1 h; high values mean tight binding
Settings: protein: ivt; tags: eGFP (N-terminal); dsDNA, one strand shown
Lab note: cut-off is 0.2 relative 10-mer count. Strictly less in binding signal is criterion met. Exactly 0.2 relative 10-mer count or more is criterion not met.

CCACGCCCAC criterion met

In: Field: below-cutoff. Rule: recorded binding signal strictly less than 0.2 relative 10-mer count. Subject: CAGCGTACCC
Out: criterion not met

In: Lab log: compare recorded binding signal with 0.2 relative 10-mer count; is it strictly lower for CAAAAAAAAA ?
Out: criterion not met

In: Given CTGCCCACCC , is recorded binding signal strictly lower than 0.2 relative 10-mer count?
Out: criterion met

In: Threshold test, binding signal < 0.2 relative 10-mer count: CAAAACAGCA
Out: criterion not met

----------
Target: ZNF721 full-length (Homo sapiens, UniProt Q8TF20-2 1-923)
Assay: HT-SELEX; 20 mM HEPES pH 7, 140 mM KCl, 5 mM NaCl, 1 mM K2HPO4, 2 mM MgSO4, 100 uM EGTA, ZnSO4, 0.1% Tween20; room temperature, 1 h; high values mean tight binding
Conditions: protein: ivt; tags: eGFP (N-terminal); dsDNA, one strand shown
observation-type: binding signal (relative 10-mer count)
Answers are plain numbers, in relative 10-mer count.

Example entries begin here.
AACCACCCCC 0.106
CGAAAAAACA 0.153
ATAAAAAAGC 0.12
AAAAAACAGC 1
GCCCGCCCCC 0.106

Give me binding signal for each of these sequences, listed below.
1. CCCACAACCC
2. CCTCCCCGCC

Out:
[0.106, 0.138]

----------
I'd appreciate it if you could supply log10 of binding signal values for the items below.
Biological target: ZNF721 DBD1 (Homo sapiens, UniProt Q8TF20-2 29-461)
Sequence (Q8TF20 17-449): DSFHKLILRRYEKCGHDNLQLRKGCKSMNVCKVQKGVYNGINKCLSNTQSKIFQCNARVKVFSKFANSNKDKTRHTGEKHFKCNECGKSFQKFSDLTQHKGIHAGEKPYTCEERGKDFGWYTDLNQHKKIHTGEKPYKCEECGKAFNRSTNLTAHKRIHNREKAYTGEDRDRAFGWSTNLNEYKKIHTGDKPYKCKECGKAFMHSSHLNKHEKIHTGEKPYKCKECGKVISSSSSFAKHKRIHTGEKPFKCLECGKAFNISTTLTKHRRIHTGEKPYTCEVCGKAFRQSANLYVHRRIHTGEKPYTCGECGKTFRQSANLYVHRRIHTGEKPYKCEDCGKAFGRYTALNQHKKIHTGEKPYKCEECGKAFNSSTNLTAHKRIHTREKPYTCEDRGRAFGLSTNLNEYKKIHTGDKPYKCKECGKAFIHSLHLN
Assay: HT-SELEX; 20 mM HEPES pH 7, 140 mM KCl, 5 mM NaCl, 1 mM K2HPO4, 2 mM MgSO4, 100 uM EGTA, ZnSO4, 0.1% Tween20; room temperature, 1 h; high values mean tight binding
Settings: protein: ivt; tags: eGFP (N-terminal); dsDNA, one strand shown
Give log10 of binding signal, with binding signal taken in relative 10-mer count.

CCCCACCCCG -2.11
CCTCCCCCTC -2.09
CCCACCCCAA -2.19
CCAAAAAACA -2.76
CCCCATCCCC -2.08
CGACCCACCC -2.32
ACAAAAAAAG -1.92
CCACACCCCA -2.33

Hi! Can you tell me log10 of binding signal for each of these sequences?
1. ACCCCACACC
2. CGCCCACCCA
3. ACCCACCCTC
4. GACCCACCCC
5. CCACCCACCC
6. ACCGCCCCCC
7. ACCCACCACC

Out:
1. -2.36
2. -2.35
3. -2.27
4. -2.37
5. -1.76
6. -2.19
7. -1.98
